Source of measurements: patent US20240270701A1

- assayTarget: B1-AR (Homo sapiens, UniProt P08588)
- Construct: expressed in transfected cells; host or cells: CHO-K1
- Sequence (P08588 whole entry, species assumed): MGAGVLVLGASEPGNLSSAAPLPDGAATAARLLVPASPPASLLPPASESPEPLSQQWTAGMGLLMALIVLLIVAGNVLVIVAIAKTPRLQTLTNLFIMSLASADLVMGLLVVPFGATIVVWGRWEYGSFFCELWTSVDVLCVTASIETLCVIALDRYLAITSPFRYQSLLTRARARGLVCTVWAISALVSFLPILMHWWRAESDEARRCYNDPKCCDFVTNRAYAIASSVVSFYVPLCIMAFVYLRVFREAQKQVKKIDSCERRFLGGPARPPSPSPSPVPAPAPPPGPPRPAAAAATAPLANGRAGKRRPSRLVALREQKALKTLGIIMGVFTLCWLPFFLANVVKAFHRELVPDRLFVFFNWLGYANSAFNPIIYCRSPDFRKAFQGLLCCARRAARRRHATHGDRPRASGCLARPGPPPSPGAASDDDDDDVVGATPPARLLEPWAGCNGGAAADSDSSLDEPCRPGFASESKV
- measurementDescription: cAMP Gs dynamic HTRF assay, cells expressing beta-adrenergic receptor (CHO-K1), B1-AR
- Assay type: cell-based
- conditionInfo: relative to full agonist isoproterenol, read-out: Emax (% iso) (%) [B1-AR]
endpointLabel: Emax

## Input Param item = O[C@@H](CNC1CCC1)c1ccc(Cl)c2[nH]ncc12 ; retrieve measured Emax.
## Output 70 to 90%

## Input Item: O[C@@H](CNC1CC1)c1cccc2[nH]ncc12
## Output 70 to 90%

## Input Item: N#Cc1cc([C@@H](O)CNC2CC2)c2cn[nH]c2c1
## Output 70 to 90%

## Input Item: CC(C)(C)CNC[C@H](O)c1cccc2c1C(F)(F)C(=O)N2
## Output < 50%

## Input Item: CC(C)(C)CNC[C@H](O)c1cccc2[nH]nc(F)c12
## Output 70 to 90%

## Input Item: O[C@@H](CNC1CCC1)c1cncc2[nH]ncc12
## Output > 90%

## Input Item: Cc1nc(N)c(Cl)cc1[C@@H](O)CNC1CC(F)(F)C1
## Output 50 to 70%

## Input Item: CC[C@H](C)NC[C@H](O)c1cccc2[nH]ncc12
## Output > 90%

## Input Item: CC(C)(C)NC[C@H](O)c1ccc2ncncc2c1
## Output 50 to 70%

## Input Item: CCC(C)(C)NC[C@H](O)c1cc(C#N)cc2[nH]ncc12
## Output 70 to 90%

## Input Item: Cc1ccc([C@@H](O)CNC(C)(C)C)c2c(F)n[nH]c12
## Output 70 to 90%

## Input Item: Cc1nc(N)ccc1[C@@H](O)CNC1(C)CCC1
## Output > 90%

## Input Item: CC(C)(CO)NC[C@H](O)c1ccc(Cl)c2[nH]ncc12
## Output 70 to 90%

## Input Item: Cc1cc2ncccc2cc1[C@@H](O)CNC(C)(C)C
## Output > 90%

## Input Item: CC(C)(CO)NC[C@H](O)c1cccc2[nH]cc(F)c12
## Output > 90%

## Input Item: CCC(C)(CC)NC[C@H](O)c1cccc2[nH]ncc12
## Output > 90%

## Input Item: Cc1cc([C@@H](O)CNC(C)(C)C)c2cn[nH]c2n1
## Output > 90%

## Input Item: Cn1ccc(CNC[C@H](O)c2cccc3[nH]nc(F)c23)n1
## Output 70 to 90%

## Input Item: C[C@H](NC[C@H](O)c1cccc2[nH]ncc12)C1CC1
## Output > 90%

## Input Item: CC(C)NC[C@H](O)c1cccc2[nH]nc(F)c12
## Output > 90%

## Input Item: Cc1ncccc1[C@@H](O)CNC(C)C
## Output 70 to 90%

## Input Item: Cc1cnc2ccc([C@@H](O)CNC(C)(C)C)cc2c1
## Output < 50%

## Input Item: Cc1nc(N)c(Cl)cc1[C@@H](CO)NC1CC(F)(F)C1
## Output < 50%

## Input Item: O[C@@H](CNC1CCC1)c1cccc2[nH]cc(F)c12
## Output > 90%

## Input Item: CC1(NC[C@H](O)c2cccc3[nH]cc(F)c23)CC1
## Output > 90%

## Input Item: CC(C)c1cc([C@@H](O)CNC(C)(C)C)c2cn[nH]c2c1
## Output 70 to 90%

## Input Item: CC1(NC[C@H](O)c2cccc3[nH]nc(Cl)c23)CCC1
## Output 70 to 90%

## Input Item: CC(C)(C)NC[C@H](O)c1cccc2c(F)n[nH]c12
## Output 70 to 90%

## Input Item: CC(C)(C)NC[C@H](O)c1cc(C2CC2)cc2[nH]ncc12
## Output 50 to 70%

## Input Item: CCC(C)(C)NC[C@H](O)c1cccc2[nH]nc(Cl)c12
## Output 70 to 90%

## Input Item: CC(C)(C)NC[C@H](O)c1cc2cccnc2cc1Cl
## Output 70 to 90%

## Input Item: CC(C)(CO)NC[C@H](O)c1cncc2[nH]ncc12
## Output > 90%

## Input Item: CCC(C)(C)NC[C@H](O)c1cccc2[nH]nc(F)c12
## Output > 90%

## Input Item: CC(C)(C)NC[C@H](O)c1cnc(N)s1
## Output 70 to 90%

## Input Item: CC(C)(C)CNC[C@H](O)c1ccc(F)c2[nH]ncc12
## Output 50 to 70%

## Input Item: CCC(C)(C)NC[C@H](O)c1cccc2[nH]nc(C)c12
## Output 70 to 90%

## Input Item: CC(C)NC[C@H](O)c1cncc2[nH]ncc12
## Output 70 to 90%

## Input Item: Cn1ncc2c([C@@H](O)CNC(C)(C)C)cc(F)cc21
## Output 70 to 90%

## Input Item: C[C@@H](NC[C@H](O)c1cccc2[nH]ncc12)C1CC1
## Output > 90%

## Input Item: CC(C)NC[C@H](O)c1ccc(Cl)c2[nH]ncc12
## Output 70 to 90%

## Input Item: Cn1ccc(CNC[C@H](O)c2cccc3[nH]ncc23)n1
## Output 70 to 90%

## Input Item: CC(C)(C)C(C)(C)NC[C@H](O)c1cccc2[nH]ncc12
## Output > 90%

## Input Item: CCC(C)(C)NC[C@H](O)c1cc(F)cc2[nH]ncc12
## Output 70 to 90%

## Input Item: Cc1n[nH]c2cccc([C@@H](O)CNC(C)(C)CO)c12
## Output 70 to 90%
